Molecular target: MAP/microtubule affinity-regulating kinase 3 (Homo sapiens);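 further: mean percent inhibition of MARK3 kinase activity, measured within the GSK PKIS screening panel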
Details: at 0.1 µM
Measured Property: inhibition

Query :: Dear colleague, I am looking for the recorded inhibition of the following molecule: `CCN1CCC(C(=O)Nc2n[nH]c3nnc(-c4cccc(F)c4F)cc23)CC1`
Result :: -0.37%

Query :: Dear colleague, I am looking for the recorded inhibition of the following molecule: `COc1cccc(Nc2nccc(-c3cnn4ncccc34)n2)c1`
Result :: 4.03%

Query :: Dear colleague, I am looking for the recorded inhibition of the following molecule: `CS(=O)(=O)Nc1ccc(-c2ccc3c(NC(=O)C4CC4)n[nH]c3c2)cc1`
Result :: 3.47%

Query :: Dear colleague, I am looking for the recorded inhibition of the following molecule: `CN(c1ccc(NC(=O)NCCN2CCOCC2)cc1)c1ccnc(Nc2ccc(CS(C)(=O)=O)cc2)n1`
Result :: 2.81%

Query :: Dear colleague, I am looking for the recorded inhibition of the following molecule: `Cc1c2ccc(N(C)c3ccnc(Nc4cccc(S(N)(=O)=O)c4)n3)cc2nn1C`
Result :: 5.31%

Query :: Dear colleague, I am looking for the recorded inhibition of the following molecule: `COc1ccc2ncn(-c3cc(O[C@H](C)c4ccccc4C(F)(F)F)c(C(N)=O)s3)c2c1`
Result :: -0.92%

Query :: Dear colleague, I am looking for the recorded inhibition of the following molecule: `Cc1ccc(-c2cc3c(NC(=O)C4CC4)ncnc3o2)cc1`
Result :: 3.78%

Query :: Dear colleague, I am looking for the recorded inhibition of the following molecule: `Cc1nnc(-c2cccc(-c3ccc(C(=O)NCC4CC4)cc3)c2)o1`
Result :: 4.12%

Query :: Dear colleague, I am looking for the recorded inhibition of the following molecule: `COC(=O)Nc1nc2cc(Oc3ccc(NC(=O)Nc4ccccc4)cc3)ccc2[nH]1`
Result :: 1.57%

Query :: Dear colleague, I am looking for the recorded inhibition of the following molecule: `c1ccc(-c2n[nH]cc2-c2ccnc(-c3ccc(OCCn4ccnc4)cc3)c2)nc1`
Result :: -0.18%

Query :: Dear colleague, I am looking for the recorded inhibition of the following molecule: `COc1cc(Nc2ncc(-c3ccccc3)o2)cc(OC)c1`
Result :: 3.35%

Query :: Dear colleague, I am looking for the recorded inhibition of the following molecule: `COc1cc(N2CCN(C(C)C)CC2)ccc1Nc1nc(Nc2cccc3ncccc23)c2cc[nH]c2n1`
Result :: 0.2%

Query :: Dear colleague, I am looking for the recorded inhibition of the following molecule: `NS(=O)(=O)c1cccc(N/C=C2\C(=O)Nc3ccccc32)c1`
Result :: 5.23%

Query :: Dear colleague, I am looking for the recorded inhibition of the following molecule: `COc1ccc(Nc2ncc(-c3ccccc3)o2)cc1OC`
Result :: 4.59%

Query :: Dear colleague, I am looking for the recorded inhibition of the following molecule: `CC1(C)CC(n2cnc(-c3ccc(F)cc3)c2-c2ccnc(N)n2)CC(C)(C)N1`
Result :: 1.34%

Query :: Dear colleague, I am looking for the recorded inhibition of the following molecule: `CCCNc1cccc(-n2ncc3c(N/N=C/c4ccncc4)ncnc32)c1`
Result :: 3.4%

Query :: Dear colleague, I am looking for the recorded inhibition of the following molecule: `CS(=O)(=O)CCNCc1ccc(-c2ccc3ncnc(Nc4ccc(OCc5ccccc5)cc4)c3c2)o1`
Result :: 0.62%

Query :: Dear colleague, I am looking for the recorded inhibition of the following molecule: `Fc1cccc(COc2ccc(Nc3ncncc3C#Cc3ccccc3)cc2Cl)c1`
Result :: 4.58%

Query :: Dear colleague, I am looking for the recorded inhibition of the following molecule: `OCCCNc1nccc(-c2c(-c3ccc(F)cc3)nn3cc(C(F)(F)F)ccc23)n1`
Result :: 0.94%

Query :: Dear colleague, I am looking for the recorded inhibition of the following molecule: `O=C(O[C@H]1CN[C@H](C#Cc2cc3ncnc(Nc4ccc5c(cnn5Cc5ccccc5)c4)c3s2)C1)N1CCOCC1`
Result :: -1.73%

Data origin, for the record: ChEMBL document CHEMBL1961873
